- assay summary: Solubility of levodopa in citrate buffer at varying pH and buffer strength
- Format: physicochemical
- applied conditions: pH 3.5, aqueous buffer, Citrate buffer 1.0M pH 3.5, read-out: Conc (levodopa solubility)
measured property: solubility (µg/mL)
Numeric only. Scale: µg/mL

State the recorded solubility for this entry: N[C@@H](Cc1ccc(O)c(O)c1)C(=O)O [Levodopa] 5230

###

- assay summary: Solubility of levodopa in citrate buffer at varying pH and buffer strength
- Format: physicochemical
- applied conditions: pH 1.5, aqueous buffer, Citrate buffer 0.15M pH1.5, read-out: Conc (levodopa solubility)
measured property: solubility
Answer with the number, then the unit.

Reported solubility, compound N[C@@H](Cc1ccc(O)c(O)c1)C(=O)O : ____ 7200 µg/mL
